src = patent US8633245B2

Assay system: recombinant human PAI-1 (Homo sapiens, UniProt P05121)
Construct: purchased Molecular Innovations, Inc
Sequence (P05121 24-402): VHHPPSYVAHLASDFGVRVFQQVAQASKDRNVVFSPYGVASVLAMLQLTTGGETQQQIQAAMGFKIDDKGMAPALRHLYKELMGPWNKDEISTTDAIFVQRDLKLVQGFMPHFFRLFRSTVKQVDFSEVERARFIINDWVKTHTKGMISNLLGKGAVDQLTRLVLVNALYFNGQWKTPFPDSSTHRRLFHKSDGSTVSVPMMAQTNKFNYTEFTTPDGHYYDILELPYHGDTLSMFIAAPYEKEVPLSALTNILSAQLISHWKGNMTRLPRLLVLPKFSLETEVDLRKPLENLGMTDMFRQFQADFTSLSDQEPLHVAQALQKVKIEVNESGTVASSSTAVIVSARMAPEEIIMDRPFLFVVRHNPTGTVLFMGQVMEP
Assay protocol: Test Example 2: human PAI-1 inhibitory activity (tPA fluorogenic substrate, pH 7.4 HEPES buffer)
Assay type: biochemical
Measurement parameters: human PAI-1; compound concentration 1 μM
The label depends only on Inhibition Rate of PAI-1 Activity (%): Fulfilled if it is at least 60%, Not fulfilled if it is smaller.

- Structure smiles: "CCCCN(CC(=O)O)c1cc(-c2ccc(OC(F)(F)F)cc2)ccc1Oc1ccc(C(C)(C)C)cc1"
  Class name: "Fulfilled"
- Structure smiles: "CCCCc1ccc(Oc2cc(-c3ccc(OC(F)(F)F)cc3)ccc2CCC(=O)O)cc1"
  Class name: "Fulfilled"
- Structure smiles: "CC(C)(C)c1ccc(Sc2cc(-c3ccc(OC(F)(F)F)cc3)ccc2C(=O)C(=O)O)cc1"
  Class name: "Fulfilled"
- Structure smiles: "CC(C)(C)c1ccc(CN(C(=O)CCCC(=O)O)c2ccc(-c3ccc(OC(F)(F)F)cc3)cc2)cc1"
  Class name: "Not fulfilled"
- Structure smiles: "CC(C)(C)c1ccc(CN(C(=O)C(=O)O)c2ccc(C(=O)Nc3ccc(OC(F)(F)F)cc3)cc2)cc1"
  Class name: "Not fulfilled"
- Structure smiles: "CC(C)c1ccccc1Oc1cc(-c2ccc(OC(F)(F)F)cc2)ccc1OCC(=O)O"
  Class name: "Fulfilled"

* * *

Assay system: recombinant human PAI-1 (Homo sapiens)
Construct: purchased Molecular Innovations, Inc
Assay protocol: Test Example 2: human PAI-1 inhibitory activity (tPA fluorogenic substrate, pH 7.4 HEPES buffer)
Assay type: biochemical
Measurement parameters: human PAI-1; compound concentration 1 μM
Decide by Inhibition Rate of PAI-1 Activity (%): equal to or exceeding 40% means fulfilled, less means not fulfilled.

- Compound: "O=C(O)CCc1ccc(-c2ccc(OC(F)(F)F)cc2)cc1Oc1ccc(C(F)(F)F)cc1 [Compound 474]"
  Class name: "fulfilled"
- Compound: "CCCCCOc1ccc(-c2ccc(OC(F)(F)F)cc2)cc1CN(CC(=O)O)c1ccc(C(C)(C)C)cc1 [Compound 647]"
  Class name: "fulfilled"
- Compound: "CN(C(=O)c1ccc(OC(F)(F)F)cc1)c1ccc(OCc2ccc(C(C)(C)C)cc2)c(CCC(=O)O)c1 [Compound 416]"
  Class name: "not fulfilled"
- Compound: "CCCCCOc1ccc(-c2ccc(OC(F)(F)F)cc2)cc1N(CCCCc1cc(C)ccc1C)C(=O)C(=O)O [Compound 670]"
  Class name: "fulfilled"
- Compound: "CC(C)(C)Oc1ccc(Oc2cc(-c3ccc(OC(F)(F)F)cc3)ccc2CCC(=O)O)cc1 [Compound 473]"
  Class name: "not fulfilled"
- Compound: "CC(C)(C)c1ccc(Oc2cc(-c3ccc4ccccc4c3)ccc2CCC(=O)O)cc1 [Compound 470]"
  Class name: "fulfilled"
- Compound: "CC(C)(C)c1ccc(COc2ccc(-c3ccc(OC(F)(F)F)cc3)cc2C(=O)O)cc1 [Compound 421]"
  Class name: "not fulfilled"
- Compound: "CCCCOc1ccc(-c2ccc(OC(F)(F)F)cc2)cc1CCC(=O)O [Compound 407]"
  Class name: "not fulfilled"
- Compound: "CC(C)(C)c1ccc(Oc2cc(-c3ccc(OC(F)(F)F)cc3)ccc2NCC(=O)O)cc1 [Compound 442]"
  Class name: "fulfilled"
- Compound: "CCC(CC)Oc1ccc(-c2ccc(OCC(=O)O)c(Oc3ccc(C(C)(C)C)cc3)c2)cc1 [Compound 447]"
  Class name: "fulfilled"
- Compound: "CC(C)c1ccc(Sc2cc(-c3ccc(OC(F)(F)F)cc3)ccc2/C=C/C(=O)O)cc1 [Compound 516]"
  Class name: "fulfilled"
- Compound: "O=C(O)C(=O)N(CCCCc1ccccc1)c1ccc(N2CCCCCC2)c(-c2ccc(OC(F)(F)F)cc2)c1 [Compound 674]"
  Class name: "fulfilled"
- Compound: "CCCCCOc1ccc(-c2ccc(OCC(=O)O)c(Oc3ccc(C(C)(C)C)cc3)c2)cc1 [Compound 440]"
  Class name: "fulfilled"
- Compound: "CC(C)(C)c1ccc(Oc2cc(-c3ccc4ccccc4c3)ccc2/C=C/C(=O)O)cc1 [Compound 469]"
  Class name: "fulfilled"
- Compound: "CC(C)(C)c1ccc(Oc2cc(-c3cccc(OC(F)(F)F)c3)ccc2CCC(=O)O)cc1 [Compound 504]"
  Class name: "fulfilled"
- Compound: "O=C(O)C(=O)N(Cc1ccc(-c2ccc(OC(F)(F)F)cc2)cc1)c1ccccc1-c1ccccc1 [Compound 632]"
  Class name: "not fulfilled"
- Compound: "CCCCOc1ccc(Oc2cc(-c3ccc(OC(F)(F)F)cc3)ccc2CCC(=O)O)cc1 [Compound 461]"
  Class name: "fulfilled"
- Compound: "CCCCN(CC(=O)O)c1ccc(-c2ccc(OC(F)(F)F)cc2)cc1Oc1ccc(C(C)(C)C)cc1 [Compound 533]"
  Class name: "fulfilled"
- Compound: "O=C(O)C(=O)N(CCCCc1ccccc1)c1ccc(N2CCCC2)c(-c2ccc(OC(F)(F)F)cc2)c1 [Compound 673]"
  Class name: "fulfilled"
- Compound: "CCCCCOc1cc(-c2ccc(OC(F)(F)F)cc2)ccc1N(CCCCc1ccccc1)CC(=O)O [Compound 643]"
  Class name: "not fulfilled"
- Compound: "CCCCC(Oc1cc(Oc2ccc(C(C)(C)C)cc2)cc(-c2ccc(OC(F)(F)F)cc2)c1)C(=O)O (stereo not shown) [Compound 426]"
  Class name: "fulfilled"
- Compound: "CCCCCOc1ccc(-c2cc(C)cc(C)c2)cc1N(CCCCc1ccccc1)C(=O)C(=O)O [Compound 672]"
  Class name: "fulfilled"
- Compound: "COc1ccc(-c2ccc(OC(F)(F)F)cc2)cc1N(CCCCc1ccccc1)C(=O)C(=O)O [Compound 651]"
  Class name: "not fulfilled"
- Compound: "CN(C(=O)c1ccc(N(Cc2ccc(C(C)(C)C)cc2)C(=O)C(=O)O)cc1)c1ccc(OC(F)(F)F)cc1 [Compound 618]"
  Class name: "not fulfilled"
- Compound: "Cc1cc(C)cc(Oc2cc(-c3ccc(C(C)(C)C)cc3)ccc2CCC(=O)O)c1 [Compound 499]"
  Class name: "fulfilled"
- Compound: "CC(C)(C)c1ccc(-c2ccc(CN(C(=O)C(=O)O)c3ccc(OC(F)(F)F)cc3)cc2)cc1 [Compound 615]"
  Class name: "fulfilled"
- Compound: "CCCCCOc1ccc(-c2ccc(OC(F)(F)F)cc2)cc1N(CCCCc1ccccc1)CC(=O)O [Compound 640]"
  Class name: "fulfilled"
- Compound: "O=C(O)CCc1ccc(-c2ccc(OC(F)(F)F)cc2)cc1Oc1ccc2ccccc2c1 [Compound 476]"
  Class name: "fulfilled"
- Compound: "CC(C)(C)c1ccc(N(Cc2ccc(-c3ccccc3)cc2)C(=O)C(=O)O)cc1 [Compound 612]"
  Class name: "not fulfilled"
- Compound: "O=C(O)C(=O)N(CCCCc1ccccc1)c1cc(-c2ccc(OC(F)(F)F)cc2)ccc1OC1CCCC1 [Compound 658]"
  Class name: "fulfilled"
- Compound: "CCCCCOc1ccc(-c2ccc(OC(F)(F)F)cc2)cc1N(CCCOCc1ccccc1)C(=O)C(=O)O [Compound 655]"
  Class name: "fulfilled"

* * *

Assay system: recombinant human PAI-1 (Homo sapiens)
Construct: purchased Molecular Innovations, Inc
Assay protocol: Test Example 1: human PAI-1 inhibitory activity (tPA fluorogenic substrate, pH 7.5 Tris buffer)
Type: biochemical
Measurement parameters: Compound Concentration 10 μM; Tris buffer
Class (by Inhibition Rate of PAI-1 Activity (%)) -- class 1 (below 30%), class 2 (30% to below 70%), class 3 (70% or more)

- Compound: "O=C(O)CCc1cc(-c2ccc(OC(F)(F)F)cc2)ccc1Oc1ccc(OC(F)(F)F)cc1 [Compound 16]"
  Class name: "class 2"
- Compound: "Cc1cc(C)cc(COc2ccc(-c3ccc(OC(F)(F)F)cc3)cc2CCC(=O)O)c1 [Compound 59]"
  Class name: "class 2"
- Compound: "CCCCCOc1ccc(N(CCCCc2ccccc2)C(=O)C(=O)O)cc1-c1ccc(OC(F)(F)F)cc1 [Compound 244]"
  Class name: "class 3"
- Compound: "O=C(O)CCc1cc(-c2ccc(OC(F)(F)F)cc2)ccc1OCc1ccc(F)cc1 [Compound 20]"
  Class name: "class 1"
- Compound: "CC(C)(C)c1ccc(CN(C(=O)C(=O)O)c2ccc(-c3ccc(Cl)cc3)cc2)cc1 [Compound 135]"
  Class name: "class 1"
- Compound: "O=C(O)CCc1cc(-c2ccc(OC(F)(F)F)cc2)ccc1OCc1ccc(Cl)cc1Cl [Compound 27]"
  Class name: "class 1"
- Compound: "CC(C)(C)c1ccc(COc2c(Cl)cc(-c3ccc(OC(F)(F)F)cc3)cc2C=CC(=O)O)cc1 [Compound 91]"
  Class name: "class 2"
- Compound: "CC(C)(C)c1ccc(-c2ccc(N(Cc3ccc(OC(F)(F)F)cc3)C(=O)C(=O)O)cc2)cc1 [Compound 162]"
  Class name: "class 3"
- Compound: "CC(C)(C)c1ccc(Oc2cc(-c3ccc(OC(F)(F)F)cc3)ccc2OC(F)(F)C(=O)O)cc1 [Compound 120]"
  Class name: "class 3"
- Compound: "CC(C)(C)c1ccc(CN(C(=O)C(=O)O)c2ccc(N3CCCCC3)c(-c3ccc(OC(F)(F)F)cc3)c2)cc1 [Compound 217]"
  Class name: "class 3"
- Compound: "CC(C)(C)c1ccc(Oc2ccc(Oc3ccc(OC(F)(F)F)cc3)cc2C=CC(=O)O)cc1 [Compound 99]"
  Class name: "class 2"
- Compound: "O=C(O)/C=C/c1cc(-c2ccc(OC(F)(F)F)cc2)ccc1OCc1ccccc1 [Compound 24]"
  Class name: "class 1"
- Compound: "O=C(O)CCc1cc(OCc2ccc(OC(F)(F)F)cc2)ccc1OCc1ccc(OC(F)(F)F)cc1 [Compound 404]"
  Class name: "class 2"
- Compound: "CC(C)(C)c1ccc(-c2ccc(OCc3ccc(OC(F)(F)F)cc3)c(CCC(=O)O)c2)cc1 [Compound 52]"
  Class name: "class 2"
- Compound: "COc1ccccc1COc1ccc(-c2ccc(OC(F)(F)F)cc2)cc1CCC(=O)O [Compound 23]"
  Class name: "class 1"
- Compound: "Cc1ccc(CN(C(=O)C(=O)O)c2ccc(-c3ccc(OC(F)(F)F)cc3)cc2)cc1 [Compound 143]"
  Class name: "class 1"
- Compound: "CC(C)(C)c1ccc(N(C(=O)C(=O)O)c2cccc(-c3ccc(OC(F)(F)F)cc3)c2)cc1 [Compound 158]"
  Class name: "class 2"
- Compound: "O=C(O)C(=O)N(Cc1ccc(OC(F)(F)F)cc1)c1ccc(-c2ccc(OC(F)(F)F)cc2)cc1 [Compound 159]"
  Class name: "class 2"
- Compound: "CC(C)(C)c1ccc(CN(C(=O)C(=O)O)c2ccc(-c3ccc(OC(F)(F)F)cc3)c(CCC(=O)O)c2)cc1 [Compound 196]"
  Class name: "class 2"
- Compound: "CC(C)(C)c1ccc(CN(C(=O)C(=O)O)c2ccc(OCc3ccccc3)c(-c3ccc(OC(F)(F)F)cc3)c2)cc1 [Compound 212]"
  Class name: "class 3"
- Compound: "CC(C)(C)c1ccc(COc2ccc(-c3ccc(OC(F)(F)F)cc3)cc2NCC(=O)O)cc1 [Compound 539]"
  Class name: "class 2"
- Compound: "CC(C)(C)c1ccc(CN(C(=O)C(=O)O)c2ccc(-c3ccc(C#N)cc3)cc2)cc1 [Compound 149]"
  Class name: "class 1"
- Compound: "CC(C)(C)c1ccc(COc2ccc(-c3ccc(OC(F)(F)F)cc3)cc2OCCCC(=O)O)cc1 [Compound 109]"
  Class name: "class 2"
- Compound: "CCN(CC)c1ccc(N(Cc2ccc(C(C)(C)C)cc2)C(=O)C(=O)O)cc1-c1ccc(OC(F)(F)F)cc1 [Compound 213]"
  Class name: "class 3"
- Compound: "O=C(O)C(=O)N(CCCCc1ccccc1)c1ccc(-c2ccc(OC(F)(F)F)cc2)cc1 [Compound 225]"
  Class name: "class 2"
- Compound: "Cc1cc(N(C)C)c(-c2ccc(OC(F)(F)F)cc2)cc1N(Cc1ccc(C(C)(C)C)cc1)C(=O)C(=O)O [Compound 215]"
  Class name: "class 3"
- Compound: "Cc1cc(-c2ccc(OC(F)(F)F)cc2)cc(/C=C/C(=O)O)c1OCc1ccc(C(C)(C)C)cc1 [Compound 83]"
  Class name: "class 2"
- Compound: "O=C(O)C(=O)N(Cc1ccc(O)cc1)c1ccc(-c2ccc(OC(F)(F)F)cc2)cc1 [Compound 181]"
  Class name: "class 1"
- Compound: "COc1cc(-c2ccc(OC(F)(F)F)cc2)cc(/C=C/C(=O)O)c1OCc1ccc(C(C)(C)C)cc1 [Compound 81]"
  Class name: "class 2"
- Compound: "CC(C)(C)c1ccc(CN(C(=O)C(=O)O)c2ccc(SCc3ccc(OC(F)(F)F)cc3)cc2)cc1 [Compound 630]"
  Class name: "class 3"
